test.system: PDE4
assay: Inhibition of PDE4 (cytosolic enzyme preparation from U937 line), compared with rolipram
condition.context: PDE4 enzyme preparation obtained from the U937 line
Would you mind telling me the reported pIC50 of each entry?
// pIC50 here means minus log10 of the molar concentration (mol/L)

// query Which measured pIC50 value corresponds to CCn1nc(C)c2c1C(=O)NCC(C1CCCCC1)=N2 [Example 31] ?
// result 6.72

// query Next entry: CCn1nc(C(C)(C)C)c2c1C(=O)NCC(c1ccc(C)cc1)=N2 [Example 45]
// result 8.59

// query Next entry: CCCn1nc(C(C)CC)c2c1C(=O)NCC(c1ccc(OC)cc1)=N2 (racemic) [Example 90]
// result 6.71

// query Next entry: CCn1nc(C)c2c1C(=O)NCC(c1ccc(C)cc1)=N2 [Example 23]
// result 7.38

// query Next entry: CCCn1nc(C(C)(C)C)c2c1C(=O)NCC(c1ccc(C)cc1)=N2 [Example 49]
// result 7.49

----------
Sorting guide: entries reporting melting point beneath 200 °C go in the YES pile, the rest go in the NO pile.

// query Threshold test, melting point < 200 °C: CCn1nc(C)c2c1C(=O)NCC(c1ccc(Br)cc1)=N2 [Example 7]
// result NO

// query Next entry: CCn1nc(C(C)C)c2c1C(=S)NCC(C(C)(C)C)=N2 [Example 67]
// result NO

// query Next entry: CCCn1nc(C(C)C)c2c1C(=S)NCC(c1ccc(C)cc1)=N2 [Example 63]
// result YES

// query Next entry: CCn1nc(C(C)(C)C)c2c1C(=O)NCC(c1ccc(N)cc1)=N2 [Example 26]
// result YES

// query Next entry: CCn1nc(C)c2c1C(=[SH]c1ccc(OC)cc1)NCC=N2 [Example 83]
// result NO

// query Next entry: CCCn1nc(C(C)(C)C)c2c1C(=O)NCC(c1ccc(OC)cc1)=N2 [Example 87]
// result YES

// query Next entry: CCn1nc(C)c2c1C(=O)NCC(c1ccc(OC)cc1)=N2 [Example 6]
// result YES

// query Next entry: CCn1nc(C)c2c1C(=O)NCC(C1CCCCC1)=N2 [Example 31]
// result YES

// query Next entry: CCn1nc(C)c2c1C(=O)NCC(c1ccncc1)=N2 [Example 32]
// result YES

// query Next entry: CCn1nc(C)c2c1C(=O)NCC(c1ccc(Cl)cc1)=N2 [Example 11]
// result NO

// query Next entry: CCn1nc(C)c2c1C(=O)NCC(c1cccc(N)c1)=N2 [Example 24]
// result YES

// query Next entry: CCn1nc(C(C)C)c2c1C(=NC#N)NCC(c1ccccc1)=N2 [Example 3]
// result NO

// query Next entry: CCn1nc(C(C)C)c2c1C(=S)NCC(c1ccc(C)cc1)=N2 [Example 66]
// result YES

// query Next entry: CCCCc1nn(CC)c2c1N=C(c1ccccc1)CNC2=O [Example 34]
// result YES

// query Next entry: CCn1nc(C(C)C)c2c1C(=O)NCC(c1ccc(N)cc1)=N2 [Example 27]
// result YES

// query Next entry: CCCn1nc(C)c2c1C(=O)NCC(c1ccc(N)cc1)=N2 [Example 29]
// result NO

// query Next entry: CCn1nc(C)c2c1C(=O)NCC(C(C)(C)C)=N2 [Example 33]
// result YES

// query Next entry: CCn1nc(C)c2c1C(=O)NCC(c1cccc(OC)c1)=N2 [Example 18]
// result YES

// query Next entry: CCCn1nc(C(C)C)c2c1C(=S)NCC(C(C)(C)C)=N2 [Example 65]
// result YES

// query Next entry: CCCn1nc(C(C)CC)c2c1C(=O)NCC(c1ccncc1)=N2 (racemic) [Example 71]
// result YES
